Reported viability, T/C is given for each of the following compounds.
- Test system: 855422-203-R-J1-PDC spheroids with HUVEC/MSC, viability
- methodSummary: Anticancer human tumor 855422-203-R-J1-PDC patient-derived bladder carcinoma cell line growth inhibition [PI3K]
- conditionParameters: second compound 0.0316 µM; first compound 0.316 µM; stronger effect = lower value
Provide the reading as a plain figure in %.

These recorded examples may help you get a feel for the data.
1) CC1(C)CCC(CN2CCN(c3ccc(C(=O)NS(=O)(=O)c4ccc(NCC5CCOCC5)c([N+](=O)[O-])c4)c(Oc4cnc5[nH]ccc5c4)c3)CC2)=C(c2ccc(Cl)cc2)C1 + COc1c(OCCCN2CCOCC2)ccc2c3n(c(=NC(=O)c4cnc(N)nc4)nc12)CCN3; 73.7
2) CC1(C)CCC(Nc2ncc(C(F)(F)F)c(-c3c[nH]c4c(P(C)(C)=O)c(C#N)ccc34)n2)CN1 (stereo not given) + CC(Nc1ccc2c(c1)OCCn1cc(N3C(=O)OCC3C(F)F)nc1-2)C(N)=O; 22.2
3) C#Cc1c(F)ccc2cc(O)cc(-c3ncc4c(N5CC6CCC(C5)N6)nc(OCC56CCCN5CC(F)C6)nc4c3F)c12 (stereo not given) + CC(Nc1ncnc2nc[nH]c12)c1cc2cccc(Cl)c2c(=O)n1-c1ccccc1; 116
4) Cn1ncc(Cl)c1-c1cc(C(=O)NC(CN)Cc2cccc(F)c2)sc1Cl (stereo not given) + CC(Nc1ccc2c(c1)OCCn1cc(N3C(=O)OCC3C(F)F)nc1-2)C(N)=O; 56.5

--- query ---
Entry C=CC(=O)N1CCN(c2nc(=O)n(-c3c(C)ccnc3C(C)C)c3nc(-c4c(O)cccc4F)c(F)cc23)C(C)C1 (stereo not given) + CC(Nc1ncnc2nc[nH]c12)c1cc2cccc(Cl)c2c(=O)n1-c1ccccc1 : reported viability, T/C = ?
112

* * *

- Tested on: 855422-203-R-J1-PDC spheroids with HUVEC/MSC, viability
- methodSummary: Anticancer human tumor 855422-203-R-J1-PDC cell line growth inhibition [PI3K];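 note: agents incubated with spheroids for one week before read-out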;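 for viability, T/C: 100% = DMSO vehicle-treated control wells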
- conditionParameters: second compound 0.316 µM; first compound 0.316 µM; stronger effect = lower value
parameterMeasured: viability, T/C (%)
Provide the reading as a plain figure in %.

These recorded examples may help you get a feel for the data.
1. C[C@@H](NC(=O)c1ncnc(N)c1Cl)c1ncc(C(=O)Nc2cc(C(F)(F)F)c(Cl)cn2)s1 + COc1c(OCCCN2CCOCC2)ccc2c3n(c(=NC(=O)c4cnc(N)nc4)nc12)CCN3; 12.5
2. C[C@@H](NC(=O)c1ncnc(N)c1Cl)c1ncc(C(=O)Nc2cc(C(F)(F)F)c(Cl)cn2)s1 + Cc1nc(NC(=O)N2CCCC2C(N)=O)sc1-c1ccnc(C(C)(C)C(F)(F)F)c1; 94.3
3. Cn1nccc1Nc1nccc(-c2ccn(C(CO)c3ccc(Cl)c(F)c3)c(=O)c2)n1 (stereo not given) + COc1c(OCCCN2CCOCC2)ccc2c3n(c(=NC(=O)c4cnc(N)nc4)nc12)CCN3; 5.39
4. C#Cc1c(F)ccc2cc(O)cc(-c3ncc4c(N5CC6CCC(C5)N6)nc(OCC56CCCN5CC(F)C6)nc4c3F)c12 (stereo not given) + COc1c(OCCCN2CCOCC2)ccc2c3n(c(=NC(=O)c4cnc(N)nc4)nc12)CCN3; 9.76

Find the measured viability, T/C: item CC(C)NCC(C(=O)N1CCN(c2ncnc3c2C(C)CC3O)CC1)c1ccc(Cl)cc1 (stereo not given) + CC(Nc1ccc2c(c1)OCCn1cc(N3C(=O)OCC3C(F)F)nc1-2)C(N)=O , target or system 855422-203-R-J1-PDC spheroids with HUVEC/MSC, viability.
45.8

Find the measured viability, T/C: item CCCS(=O)(=O)Nc1ccc(F)c(C(=O)c2c[nH]c3ncc(-c4ccc(Cl)cc4)cc23)c1F + Cc1nc(NC(=O)N2CCCC2C(N)=O)sc1-c1ccnc(C(C)(C)C(F)(F)F)c1 , target or system 855422-203-R-J1-PDC spheroids with HUVEC/MSC, viability.
99.1

Find the measured viability, T/C: item Cn1nccc1Nc1nccc(-c2ccn(C(CO)c3ccc(Cl)c(F)c3)c(=O)c2)n1 (stereo not given) + Cc1nc(NC(=O)N2CCCC2C(N)=O)sc1-c1ccnc(C(C)(C)C(F)(F)F)c1 , target or system 855422-203-R-J1-PDC spheroids with HUVEC/MSC, viability.
96.4

* * *

Reported viability, T/C is given for each of the following compounds.
- System: 855422-203-R-J1-PDC spheroids with HUVEC/MSC, viability
- methodSummary: Anticancer human tumor 855422-203-R-J1-PDC cell line growth inhibition [PI3K];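 note: agents incubated with spheroids for one week before read-out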;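 for viability, T/C: 100% = DMSO vehicle-treated control wells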
- conditionParameters: second compound 0.01 µM; first compound 0.0316 µM; stronger effect = lower value
Provide the reading as a plain figure in %.

1. C#Cc1c(F)ccc2cc(O)cc(-c3ncc4c(N5CC6CCC(C5)N6)nc(OCC56CCCN5CC(F)C6)nc4c3F)c12 (centres undefined) + COc1c(OCCCN2CCOCC2)ccc2c3n(c(=NC(=O)c4cnc(N)nc4)nc12)CCN3; 97.7
2. CC(Cn1ccc(-c2ccc(C#N)c(Cl)c2)n1)NC(=O)c1cc(C(C)O)[nH]n1 (centres undefined) + COc1c(OCCCN2CCOCC2)ccc2c3n(c(=NC(=O)c4cnc(N)nc4)nc12)CCN3; 91.4
3. CNC(=O)c1ccc(N2C(=S)N(c3ccc(C#N)c(C(F)(F)F)c3)C(=O)C2(C)C)cc1F + COc1c(OCCCN2CCOCC2)ccc2c3n(c(=NC(=O)c4cnc(N)nc4)nc12)CCN3; 74

Entry CC1(C)CCC(Nc2ncc(C(F)(F)F)c(-c3c[nH]c4c(P(C)(C)=O)c(C#N)ccc34)n2)CN1 (centres undefined) + COc1c(OCCCN2CCOCC2)ccc2c3n(c(=NC(=O)c4cnc(N)nc4)nc12)CCN3 : reported viability, T/C = ?
21.2

* * *

Reported viability, T/C is given for each of the following molecules.
- Test system: 855422-203-R-J1-PDC spheroids with HUVEC/MSC, viability
- methodSummary: Anticancer human tumor 855422-203-R-J1-PDC cell line growth inhibition [PI3K];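 note: agents incubated with spheroids for one week before read-out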;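 for viability, T/C: 100% = DMSO vehicle-treated control wells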
- conditionParameters: second compound 0.0316 µM; first compound 0.316 µM; stronger effect = lower value
Provide the reading as a plain figure in %.

Entry CCN1CCN(Cc2ccc(Nc3ncc(F)c(-c4cc(F)c5nc(C)n(C(C)C)c5c4)n3)nc2)CC1 + COc1c(OCCCN2CCOCC2)ccc2c3n(c(=NC(=O)c4cnc(N)nc4)nc12)CCN3 : reported viability, T/C = ?
26.7

* * *

- Test system: 855422-203-R-J1-PDC spheroids with HUVEC/MSC, viability
- methodSummary: Anticancer human tumor 855422-203-R-J1-PDC cell line growth inhibition [PI3K];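 note: agents incubated with spheroids for one week before read-out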;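 for viability, T/C: 100% = DMSO vehicle-treated control wells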
- conditionParameters: second compound 1 µM; first compound 0.0949 µM; stronger effect = lower value
parameterMeasured: viability, T/C

1. Cn1cnc2c(F)c(Nc3ccc(Br)cc3Cl)c(C(=O)NOCCO)cc21 + Cc1nc(NC(=O)N2CCCC2C(N)=O)sc1-c1ccnc(C(C)(C)C(F)(F)F)c1; 45.1%
2. Cn1cnc2c(F)c(Nc3ccc(Br)cc3Cl)c(C(=O)NOCCO)cc21 + COc1c(OCCCN2CCOCC2)ccc2c3n(c(=NC(=O)c4cnc(N)nc4)nc12)CCN3; 1.65%
3. Cn1cnc2c(F)c(Nc3ccc(Br)cc3Cl)c(C(=O)NOCCO)cc21 + CC(Nc1ncnc2nc[nH]c12)c1cc2cccc(Cl)c2c(=O)n1-c1ccccc1; 103%

--- query ---
Entry Cn1cnc2c(F)c(Nc3ccc(Br)cc3Cl)c(C(=O)NOCCO)cc21 + CC(Nc1ccc2c(c1)OCCn1cc(N3C(=O)OCC3C(F)F)nc1-2)C(N)=O : reported viability, T/C = ?
25.3%

* * *

- Test system: 855422-203-R-J1-PDC spheroids with HUVEC/MSC, viability
- methodSummary: Anticancer human tumor 855422-203-R-J1-PDC cell line growth inhibition [PI3K];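 note: agents incubated with spheroids for one week before read-out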
- conditionParameters: curve of first compound; second compound 0.1 µM
parameterMeasured: IC50

1. CC(Cn1ccc(-c2ccc(C#N)c(Cl)c2)n1)NC(=O)c1cc(C(C)O)[nH]n1 (stereo not drawn) + COc1c(OCCCN2CCOCC2)ccc2c3n(c(=NC(=O)c4cnc(N)nc4)nc12)CCN3; < 0.0316 µM
2. CC(=O)c1c(C)c2cnc(Nc3ccc(N4CCNCC4)cn3)nc2n(C2CCCC2)c1=O + CC(Nc1ncnc2nc[nH]c12)c1cc2cccc(Cl)c2c(=O)n1-c1ccccc1; > 0.1 µM

Entry Cn1nccc1Nc1nccc(-c2ccn(C(CO)c3ccc(Cl)c(F)c3)c(=O)c2)n1 (stereo not drawn) + CC(Nc1ncnc2nc[nH]c12)c1cc2cccc(Cl)c2c(=O)n1-c1ccccc1 : reported IC50 = ?
9.94 µM

* * *

- System: 855422-203-R-J1-PDC spheroids with HUVEC/MSC, viability
- methodSummary: Anticancer human tumor 855422-203-R-J1-PDC cell line growth inhibition [PI3K];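 note: agents incubated with spheroids for one week before read-out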;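 for viability, T/C: 100% = DMSO vehicle-treated control wells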
- conditionParameters: second compound 0.0316 µM; first compound 0.316 µM; stronger effect = lower value
parameterMeasured: viability, T/C (%)
Provide the reading as a plain figure in %.

1. C#Cc1c(F)ccc2cc(O)cc(-c3ncc4c(N5CC6CCC(C5)N6)nc(OCC56CCCN5CC(F)C6)nc4c3F)c12 (stereo not given) + Cc1nc(NC(=O)N2CCCC2C(N)=O)sc1-c1ccnc(C(C)(C)C(F)(F)F)c1; 108
2. CC(Cn1ccc(-c2ccc(C#N)c(Cl)c2)n1)NC(=O)c1cc(C(C)O)[nH]n1 (stereo not given) + Cc1nc(NC(=O)N2CCCC2C(N)=O)sc1-c1ccnc(C(C)(C)C(F)(F)F)c1; 114
3. CNC(=O)c1ccc(N2C(=S)N(c3ccc(C#N)c(C(F)(F)F)c3)C(=O)C2(C)C)cc1F + Cc1nc(NC(=O)N2CCCC2C(N)=O)sc1-c1ccnc(C(C)(C)C(F)(F)F)c1; 99.1
4. C=CC(=O)N1CCN(c2nc(=O)n(-c3c(C)ccnc3C(C)C)c3nc(-c4c(O)cccc4F)c(F)cc23)C(C)C1 (stereo not given) + CC(Nc1ccc2c(c1)OCCn1cc(N3C(=O)OCC3C(F)F)nc1-2)C(N)=O; 96.7

--- query ---
Entry CC1(C)CCC(CN2CCN(c3ccc(C(=O)NS(=O)(=O)c4ccc(NCC5CCOCC5)c([N+](=O)[O-])c4)c(Oc4cnc5[nH]ccc5c4)c3)CC2)=C(c2ccc(Cl)cc2)C1 + CC(Nc1ccc2c(c1)OCCn1cc(N3C(=O)OCC3C(F)F)nc1-2)C(N)=O : reported viability, T/C = ?
98.2
